# tested-target: T1, human TREM2 (human, UniProt Q9NZC2 19-174, limits assumed)
# T1 construct: also called triggering receptor expressed on myeloid cells 2
# T1 sequence: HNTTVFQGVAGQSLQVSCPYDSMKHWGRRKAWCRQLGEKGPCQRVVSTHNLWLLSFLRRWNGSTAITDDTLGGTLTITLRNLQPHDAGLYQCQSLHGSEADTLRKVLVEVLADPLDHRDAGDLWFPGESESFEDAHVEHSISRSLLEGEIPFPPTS
# experiment-description: 2nd screen 100 nM
Please respond with reported Binding Signal (fold over 6E7 Parental antibody) for every item in the list.
Please state the figure in fold; there is no need to write the unit.

Request: What measured Binding Signal (fold over 6E7 Parental antibody) goes with V82 (antibody, V domains shown) VH: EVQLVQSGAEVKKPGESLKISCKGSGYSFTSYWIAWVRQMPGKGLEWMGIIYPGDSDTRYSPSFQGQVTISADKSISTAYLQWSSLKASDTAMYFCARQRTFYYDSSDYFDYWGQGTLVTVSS VL: DIQMTQSPSSVSASVGDRVTITCRASQGISSWLAWYQQKPGKAPKLLIYAGSSLQNGVPSRFSGSGSGTDFTLTISSLQPEDFATYFCQQADSFPRTFGQGTKLEIK ?
Response: 0.79

Request: Returns the measured Binding Signal (fold over 6E7 Parental antibody) for the input binder. Input: V69 (antibody, V domains shown) VH: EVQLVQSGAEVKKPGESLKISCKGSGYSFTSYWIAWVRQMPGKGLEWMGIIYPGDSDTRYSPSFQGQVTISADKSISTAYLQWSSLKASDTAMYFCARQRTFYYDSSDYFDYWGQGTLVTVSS VL: DIQMTQSPSSVSASVGDRVTITCRASQGISSYLAWYQQKPGKAPKLLIYAASSLQNGVPSRFSGSGSGTDFTLTISSLQPEDFATYFCQQADSFPRTFGQGTKLEIK
Response: 0.4

Request: Endpoint output: Binding Signal (fold over 6E7 Parental antibody) of V90 (antibody, V domains shown) VH: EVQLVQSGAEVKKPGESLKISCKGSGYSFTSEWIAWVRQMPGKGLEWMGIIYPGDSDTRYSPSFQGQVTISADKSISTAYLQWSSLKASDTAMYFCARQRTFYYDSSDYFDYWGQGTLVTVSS VL: DIQMTQSPSSVSASVGDRVTITCRASQGISRWLAWYQQKPGKAPKLLIYAASSLQNGVPSRFSGSGSGTDFTLTISSLQPEDFATYFCQQADSFPRTFGQGTKLEIK . Value?
Response: 0.36
